Target: GSK3β (Homo sapiens)
Sequence (P49841 whole entry): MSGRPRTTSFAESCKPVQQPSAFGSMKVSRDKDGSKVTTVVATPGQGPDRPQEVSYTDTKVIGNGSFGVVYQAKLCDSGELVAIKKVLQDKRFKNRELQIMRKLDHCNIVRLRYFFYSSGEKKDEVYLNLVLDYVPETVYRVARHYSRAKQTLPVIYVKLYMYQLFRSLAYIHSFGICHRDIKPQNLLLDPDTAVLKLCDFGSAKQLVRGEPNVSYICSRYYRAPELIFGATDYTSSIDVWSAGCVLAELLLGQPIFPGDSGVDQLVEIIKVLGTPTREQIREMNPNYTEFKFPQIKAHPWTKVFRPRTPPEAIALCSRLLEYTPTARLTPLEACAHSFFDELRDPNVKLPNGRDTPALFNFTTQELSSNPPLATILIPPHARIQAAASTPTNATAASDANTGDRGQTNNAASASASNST
Test: Inhibitory activity against GSK3β (33P-ATP phosphorylation of prephosphorylated GS1 peptide, four protocols)
Assay type: biochemical
Conditions: protocol 4: commercial GSK3beta (Millipore), 7.5 μM GS1 peptide, 10 μM ATP, 50 mM Hepes pH 7.2, 90 minutes at room temperature
property label: pIC50
Give only the number. pIC50 is defined as minus log10 of concentration in molar units.

Exam item: Fill blank: measured pIC50 of the compound COc1cc(Cl)ccc1C(=O)NCC1CCCCn2c1nc(-c1ccncn1)cc2=O (racemic) is ____.
Marked response: 7.52
